Molecular target: Claudin18.2-His protein (human)
Assay: indirect ELISA on coated Claudin18.2-His
METRIC: EC50 (µg/mL)
Numbers only, in µg/mL.

1. 222B6G5 (antibody, V domains shown) VH: QTYLQQSGAELVRSGASVKMSCKASGYTFTSYNIHWVKQTPGQGLEWIGYISPGNGGTYYNLKFKDKATLTTATSSSTAYMQISSLTSEDSAVYFCATGRGFAYWGQGTLVTVSA VL: DIVMTQSPSSLTVTPGEKVTMSCKSSQSLFNSGNQKNYLIWYQQKPGQPPKLLIYRASTRDSGVPDRFTGSGSGTDFTLTISNVQAEDLAVYYCQNDYSYPLTFGAGTKLELK :: 0.0201
2. 407A8G10 (antibody, V domains shown) VH: DVQLVESGGGLVQPGGSRKLSCAASGFTFSGFGMHWIRQTPEKGLEWVAYISSGSRPIYYADTVKGRFTISRDNPKNTLFLQMTSLRSEDTAMYFCARFYYGNSFDHWGQGTLVTVSA VL: DIVMTQSPSFLTVTAGEKVTMSCRSSQSLLNSGNQRNYLTWYQQKPGQPPKLLIYWASTRESGVPDRFTGSGSGTDFALTISSVQAEDLALYYCQNAYSFPLTFGAGTKLELK :: 0.00554

Now, please, on to the next binder.
Field EC50 (entry 235A10C9 (antibody, V domains shown) VH: QAYLQQSGAELVRSGASVKMSCKASGYTFASHNMHWVKQTPGQGLEWIGYIYPGNSGTKYNQKFTGKATLTADTSSSTAYMQITSLTSEDSAVYFCARDYYGNSFAYWGQGTLVTVSA VL: DIVMTQSPSSLTEKAGEKVSMRCKSSQSLLNSGNQKNYLTWYQQKPGQPPKLLIYWASTRESGVPDRFTGSGSGTDFTLTISSVQADDLAVYYCQNDYMFPFTFGAGTKLELK ) reads 0.0355
